Test: Aqueous solubility of compound in deionized water by HPLC-HRMS analysis
Type: physicochemical
Details: buffer
Result Type: solubility (nM)
The response must be a number in nM with no trailing unit.

Guide cases for solubility, answers given:
| Structure Notation | Result Type | Quantitative Readout |
| --- | --- | --- |
| COc1cc(-c2c3c4cc(OC)c(O)cc4oc(=O)c3n3ccc4cc(O[C@H]5O[C@H](CO)[C@@H](O)[C@H](O)[C@@H]5O)c(OC)cc4c23)ccc1O | solubility | 0.23 |
| COc1cc(-c2c3c4cc(OC)c(O[C@@H]5O[C@H](CO)[C@@H](O)[C@H](O)[C@H]5O)cc4oc(=O)c3n3ccc4cc(O[C@@H]5O[C@H](CO)[C@@H](O)[C@H](O)[C@H]5O)c(OC)cc4c23)ccc1O | solubility | 182.31 |
| COc1cc(-c2c3c4cc(OC)c(O)cc4oc(=O)c3n3ccc4cc(O[C@@H]5O[C@H](CO)[C@@H](O)[C@H](O)[C@H]5O)c(OC)cc4c23)ccc1O | solubility | 257.78 |
| COc1cc(-c2c3c4cc(OC)c(O[C@@H]5O[C@H](CO)[C@@H](O)[C@H](O)[C@H]5O)cc4oc(=O)c3n3ccc4cc(O)c(OC)cc4c23)ccc1O | solubility | 2 |
| COc1cc2c(ccn3c2c(-c2ccc(O[C@@H]4O[C@H](CO)[C@@H](O)[C@H](O)[C@H]4O)c(OC)c2)c2c4cc(OC)c(O[C@@H]5O[C@H](CO)[C@@H](O)[C@H](O)[C@H]5O)cc4oc(=O)c23)cc1O | solubility | 257.55 |

Exam item: Would you mind telling me what solubility value was observed for COc1cc2c(cc1O)oc(=O)c1c2c(-c2ccc(O[C@@H]3O[C@H](CO)[C@H](O)[C@H](O)[C@H]3O)c(OC)c2)c2c3cc(OC)c(O)cc3ccn21 ?
Marked response: 0.49

Exam item: Would you mind telling me what solubility value was observed for COc1cc2c(cc1O)oc(=O)c1c2c(-c2ccc(O[C@@H]3O[C@H](CO)[C@@H](O)[C@H](O)[C@H]3O)c(OC)c2)c2c3cc(OC)c(O)cc3ccn21 ?
Marked response: 0.41

---

Tested on: HGC-27
Assay: Cytotoxicity against human HGC-27 cells assessed as reduction in cell viability incubated for 72 hrs by MTT assay
Type: functional, cell-based
Settings: HGC-27, 72 h
Result Type: pIC50
Please treat pIC50 as minus the base-10 logarithm of the molar concentration.

| Structure Notation | Quantitative Readout |
| --- | --- |
| COc1cc(-c2c3c4cc(OC)c(O[C@@H]5O[C@H](CO)[C@@H](O)[C@H]5O)cc4oc(=O)c3n3ccc4cc(O)c(OC)cc4c23)ccc1O | 6.06 |
| COc1cc(-c2c3c4cc(OC)c(O[C@@H]5O[C@H](CO)[C@H](O)[C@H](O)[C@H]5O)cc4oc(=O)c3n3ccc4cc(O)c(OC)cc4c23)ccc1O | 7.05 |
| COc1cc(-c2c3c4cc(OC)c(O[C@@H]5O[C@H](CO)[C@@H](O)[C@H](O)[C@H]5O)cc4oc(=O)c3n3ccc4cc(O[C@@H]5O[C@H](CO)[C@@H](O)[C@H](O)[C@H]5O)c(OC)cc4c23)ccc1O | 7.13 |

Shifting focus to the compound that follows.
Exam item: Would you mind telling me what pIC50 value was observed for COc1cc2c(cc1O)oc(=O)c1c2c(-c2ccc(O[C@H]3O[C@H](CO)[C@@H](O)[C@H](O)[C@@H]3O)c(OC)c2)c2c3cc(OC)c(O)cc3ccn21 ?
Marked response: 4.50

---

Test system: HGC-27
Assay: Cytotoxicity against human HGC-27 cells assessed as reduction in cell viability incubated for 72 hrs by MTT assay
Type: functional, cell-based
Conditions: HGC-27, 72 h
Property: IC50; scope: individual compounds
The response must be a number in nM with no trailing unit.

Guide cases for IC50, answers given:
| Structure Notation | Readout Unit | IC50 |
| --- | --- | --- |
| COc1cc(-c2c3c4cc(OC)c(O)cc4oc(=O)c3n3ccc4cc(O[C@H]5O[C@H](CO)[C@@H](O)[C@H](O)[C@@H]5O)c(OC)cc4c23)ccc1O | nM | 219 |
| COc1cc(-c2c3c4cc(OC)c(O[C@@H]5O[C@H](CO)[C@@H](O)[C@H](O)[C@H]5O)cc4oc(=O)c3n3ccc4cc(O)c(OC)cc4c23)ccc1O | nM | 162 |

Shifting focus to the compound that follows.
Exam item: Would you mind telling me what IC50 value was observed for COc1cc(-c2c3c4cc(OC)c(O)cc4oc(=O)c3n3ccc4cc(O[C@@H]5O[C@H](CO)[C@@H](O)[C@H]5O)c(OC)cc4c23)ccc1O ?
Marked response: 1240

---

System: HGC-27
Assay: Cytotoxicity against human HGC-27 cells assessed as reduction in cell viability incubated for 72 hrs by MTT assay
Type: functional, cell-based
Settings: HGC-27, 72 h
Property: pIC50; scope: individual compounds
Please treat pIC50 as minus the base-10 logarithm of the molar concentration.

Guide cases for pIC50, answers given:
| Compound | Target | pIC50 |
| --- | --- | --- |
| COc1cc(-c2c3c4cc(OC)c(O)cc4oc(=O)c3n3ccc4cc(O[C@@H]5O[C@H](CO)[C@H](O)[C@H](O)[C@H]5O)c(OC)cc4c23)ccc1O | HGC-27 | 6.94 |
| COc1cc2c(ccn3c2c(-c2ccc(O[C@@H]4O[C@H](CO)[C@@H](O)[C@H](O)[C@H]4O)c(OC)c2)c2c4cc(OC)c(O[C@@H]5O[C@H](CO)[C@@H](O)[C@H](O)[C@H]5O)cc4oc(=O)c23)cc1O | HGC-27 | 5.14 |
| COc1cc2c(cc1O)oc(=O)c1c2c(-c2ccc(O[C@@H]3O[C@H](CO)[C@H](O)[C@H](O)[C@H]3O)c(OC)c2)c2c3cc(OC)c(O)cc3ccn21 | HGC-27 | 4.78 |
| COc1cc(-c2c3c4cc(OC)c(O)cc4oc(=O)c3n3ccc4cc(O)c(OC)cc4c23)ccc1O [LAMELLARIN D] | HGC-27 | 6.63 |
| COc1cc2c(cc1O)oc(=O)c1c2c(-c2ccc(O[C@@H]3O[C@H](CO)[C@@H](O)[C@H](O)[C@H]3O)c(OC)c2)c2c3cc(OC)c(O[C@@H]4O[C@H](CO)[C@@H](O)[C@H](O)[C@H]4O)cc3ccn21 | HGC-27 | 4.57 |

Shifting focus to the compound that follows.
Exam item: Would you mind telling me what pIC50 value was observed for COc1cc(-c2c3c4cc(OC)c(O)cc4oc(=O)c3n3ccc4cc(O[C@@H]5O[C@H](CO)[C@@H](O)[C@H](O)[C@H]5O)c(OC)cc4c23)ccc1O ?
Marked response: 6.94

---

Assay: Aqueous solubility of compound in deionized water by HPLC-HRMS analysis
Type: physicochemical
Details: buffer
Tag: class 1 if measured solubility is not below 100 nM, class 0 if it is.

| Structure Notation | Class Name |
| --- | --- |
| COc1cc(-c2c3c4cc(OC)c(O[C@@H]5O[C@H](CO)[C@H](O)[C@H](O)[C@H]5O)cc4oc(=O)c3n3ccc4cc(O)c(OC)cc4c23)ccc1O | class 0 |
| COc1cc(-c2c3c4cc(OC)c(O)cc4oc(=O)c3n3ccc4cc(O)c(OC)cc4c23)ccc1O | class 0 |
| COc1cc2c(cc1O)oc(=O)c1c2c(-c2ccc(O[C@H]3O[C@H](CO)[C@@H](O)[C@H](O)[C@@H]3O)c(OC)c2)c2c3cc(OC)c(O)cc3ccn21 | class 0 |
| COc1cc(-c2c3c4cc(OC)c(O)cc4oc(=O)c3n3ccc4cc(O[C@@H]5O[C@H](CO)[C@H](O)[C@H](O)[C@H]5O)c(OC)cc4c23)ccc1O | class 1 |
| COc1cc2c(cc1O)oc(=O)c1c2c(-c2ccc(O[C@@H]3O[C@H](CO)[C@@H](O)[C@H](O)[C@H]3O)c(OC)c2)c2c3cc(OC)c(O[C@@H]4O[C@H](CO)[C@@H](O)[C@H](O)[C@H]4O)cc3ccn21 | class 0 |

Now, please, on to the next compound.
Exam item: Does the reported solubility for COc1cc(-c2c3c4cc(OC)c(O[C@H]5O[C@H](CO)[C@@H](O)[C@H](O)[C@@H]5O)cc4oc(=O)c3n3ccc4cc(O)c(OC)cc4c23)ccc1O fall at or above the 100 nM mark?
Marked response: class 0

---

System: HGC-27
Experiment: Cytotoxicity against human HGC-27 cells assessed as reduction in cell viability incubated for 72 hrs by MTT assay
Format: functional, cell-based
Conditions: HGC-27, 72 h
Result Type: pIC50
Please treat pIC50 as minus the base-10 logarithm of the molar concentration.

| Structure Notation | Result Type | Quantitative Readout |
| --- | --- | --- |
| COc1cc2c(cc1O)oc(=O)c1c2c(-c2ccc(O[C@@H]3O[C@H](CO)[C@@H](O)[C@H]3O)c(OC)c2)c2c3cc(OC)c(O)cc3ccn21 | pIC50 | 6.65 |

Shifting focus to the compound that follows.
Exam item: Would you mind telling me what pIC50 value was observed for COc1cc(-c2c3c4cc(OC)c(O[C@H]5O[C@H](CO)[C@@H](O)[C@H](O)[C@@H]5O)cc4oc(=O)c3n3ccc4cc(O)c(OC)cc4c23)ccc1O ?
Marked response: 6.86

The measurements presented in this section are drawn from ChEMBL document CHEMBL4732207.
